- tgt: KRAS G12V (Homo sapiens, UniProt P01116+P62937, G12V)
- Sequence (P01116 1-169 isoform P01116-2 G12V limits assumed): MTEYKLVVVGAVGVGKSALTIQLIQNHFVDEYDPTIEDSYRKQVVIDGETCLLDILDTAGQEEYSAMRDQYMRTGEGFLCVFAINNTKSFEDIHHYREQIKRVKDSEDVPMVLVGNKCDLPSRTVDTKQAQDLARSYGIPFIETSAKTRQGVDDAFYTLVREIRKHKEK
- Sequence (P62937 whole entry): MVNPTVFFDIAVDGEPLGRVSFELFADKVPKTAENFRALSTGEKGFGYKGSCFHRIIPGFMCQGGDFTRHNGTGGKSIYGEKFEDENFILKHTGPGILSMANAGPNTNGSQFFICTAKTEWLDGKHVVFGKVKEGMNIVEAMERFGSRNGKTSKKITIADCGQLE
- assay remarks: Disruption of BRAF RBD interaction with Ras (FRET / MOA assay, with Cyclophilin A)
- Assay type: biochemical
- measurement parameters: KRAS G12V; read-out: KRAS G12V FRET data IC50
pIC50: −log10 of the molar value.
// pIC50 lookup, one value per entry
measured property: pIC50

[[record]]
molecule = "CCn1c(-c2cccnc2[C@H](C)OC)c2c3cc(ccc31)-c1csc(n1)C[C@H](NC(=O)[C@H](C(C)C)N(C)C(=O)N1CC(S(=O)(=O)NC)C1)C(=O)N1CCC[C@H](N1)C(=O)OCC(C)(C)C2 (atropisomer, axis not shown)"
tgt = "KRAS G12V (Homo sapiens, UniProt P01116+P62937, G12V)"
recorded_measurement = "6.00 to 7.00"

[[record]]
molecule = "CCn1c(-c2cccnc2[C@H](C)OC)c2c3cc(ccc31)-c1csc(n1)C[C@H](NC(=O)[C@H](C(C)C)N(C)C(=O)N1CC3(CCN(C)CC3)C1)C(=O)N1CCC[C@H](N1)C(=O)OCC(C)(C)C2"
tgt = "KRAS G12V (Homo sapiens, UniProt P01116+P62937, G12V)"
recorded_measurement = "6.00 to 7.00"

